Experiment: yeast display, Sf9 membrane polyspecificity reagent, FACS + sequencing; frameworks hold sequencing errors
OBSERVATION TYPE: polyreactivity (PSR sort gate)

Example results:
QUERY SEQUENCE	polyreactivity (PSR sort gate)
QVQLVESGGGLVQAGGSLRLSCAASGFTFSKNTMGWYRQAPGKERELVAVITRGGGTYYADSVKGRFTISRDNAKNTVYLQMNSLKPEDTAVYYCAVKRNTAYRQAYYLDDYWGQGTQVTVSS	high polyreactivity
QVQLVDSGGGFVQAGGSLRLSCAASGSILAQKAMGWYRQAPGKERELVAAISWSGGRTYYADSVKGRFTISLDNAKNYVYLQMNCLKPEDTAVYYCNKVRRASTVHPDNYWGQGTQVTVSS	high polyreactivity
QVQLVESGGGLVQAGGSLRLSCAASGSTFSAYAMGWYRQAPGKERELVAAISRSGTRTYYADSVKGRFTISRDNAKNNVYLQMNSLKPEDTAVYYCARYAGRLSYRYEYWGQGTQVTVSS	high polyreactivity
QVQLVESGGGLVQAGGSLRLSCAASGLIFAEYAMGWYRQAPGKERELVARITSAGSTDYADSVKGRFTISRDNAKNTVYLQMNSLKPEDTAVYYCAARYYSQDKNASTASDFDYWGQGTQVTVSS	low polyreactivity
QFQLVESGGGLVQAGGSLRLSCAASGSTFYTNAMGWYRQAPGKERELVAAITSRTGSTYYADSVKGRFTISRDNAKNTVYLQMNSLKPEDTAVYYCAADIYDWGGHYEYWGQGTQVTVSS	high polyreactivity

GET /value?item= QVQLVESRGGLVQAGGSLRLSCAASGSIFLVYAMGWYRQAPGKERELVAAIDSSGGSTYYADSVKGRFTISRDNAKNTVYLQMNSLKREDTAVYYCAVYIRYPWSGRYDYWGQGTQVTVSS &field=polyreactivity (PSR sort gate) returns high polyreactivity

Field polyreactivity (PSR sort gate) (entry QVQLEESGGGLVQAGASLRLICAASGFTFARNAMGWYRQAPGKERELVASITSGGSTNYADSVKGRFTISRDNAKNTVYLQMNSLKPEETAVYYCAAYQWIAPRRDYWGQGTQVTVSS ) reads low polyreactivity

Reported polyreactivity (PSR sort gate) of QVQLVESGGCLVQAGGSLRLSCAASGITYLEYAMGWYIQAPGKERELVATINSGGSTNYADSVKGRFTISRDNAKNTVYLQMNSLKPEDTAVYYCAAVVSDYVWRYEYWGQGTQVTVSS : low polyreactivity

# polyreactivity (PSR sort gate) (sequence: QVQLVESGGGLVQAGGSLRLSCAASGSTFFRNAMGWYRQAPGKDRELVAAISSSGGRTYYADSVKGRFTISRDNAKNTVYLQMNSLKPVETAVYYCAVVSSHYKGPGRNGYDYWAQGTQVTVSS ) is high polyreactivity

Entry under test: QVQLVESGGGLVQAGGSLRLSCAASGRSFYTNAMGWYRPAPGKERELLAAIRRSGTSTYYADSVKGRFTISRDNAYNTVYLQMNSLKPEDTAVYYCAALRSLLYRTYGYWGLGTQVTVSS . Its polyreactivity (PSR sort gate) was low polyreactivity

The recorded polyreactivity (PSR sort gate) for entry HVQLVESGRGLVEAGGSLRLSCAAYGLGCTVNAMVWYIQAPGTERELVARIVWPGITYADSVKGRFTISLDNAMNTVYLQMNSQKPEDTAVYYCAAVWLHHSYYAKYDYWGQRTQVTVSS equals low polyreactivity

The measured polyreactivity (PSR sort gate) associated with QVQLVESGGGLVQAGGSLRLSCAASGSIFYVNTMGWYRQAPGKEREFVAAISGSGGSTRYADSVKGRFTISRDNAKNTVYLQMNSLKPEDTAVYYCAADRYTYIWYHIYDYWGQGTQVTVSS reads low polyreactivity
